# SUBJECT_OF_TEST: human CD33 P238A (human, UniProt P20138 18-364)
# Sequence (P20138 18-364 P238A limits assumed): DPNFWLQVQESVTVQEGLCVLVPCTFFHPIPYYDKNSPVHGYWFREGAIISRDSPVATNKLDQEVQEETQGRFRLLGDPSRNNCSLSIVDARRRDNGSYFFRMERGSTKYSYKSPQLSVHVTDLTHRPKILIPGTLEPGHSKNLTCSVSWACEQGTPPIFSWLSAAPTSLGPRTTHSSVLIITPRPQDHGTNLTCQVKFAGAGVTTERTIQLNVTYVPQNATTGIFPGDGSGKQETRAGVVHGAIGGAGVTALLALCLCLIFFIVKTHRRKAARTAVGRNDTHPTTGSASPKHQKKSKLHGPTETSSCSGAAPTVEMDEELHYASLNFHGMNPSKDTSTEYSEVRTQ
# MEASUREMENT_PROTOCOL: alanine scan, flow cytometry, HEK293-T;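 further: antibody binding to each alanine-substituted CD33 mutant expressed transiently in HEK293-T, read as fluorescence minus background, mean of duplicates, relative to wild-type CD33 set as 100%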
OBSERVABLE: Mean % WT Binding (%)

BINDER	REPORTED
Refmab #4 (antibody, V domains shown, In the alanine scan antibodies were used as IgG or Fab) VH: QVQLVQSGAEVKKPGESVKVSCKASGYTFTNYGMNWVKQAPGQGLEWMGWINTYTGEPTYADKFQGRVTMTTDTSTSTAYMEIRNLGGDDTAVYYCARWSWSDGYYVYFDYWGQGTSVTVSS VL: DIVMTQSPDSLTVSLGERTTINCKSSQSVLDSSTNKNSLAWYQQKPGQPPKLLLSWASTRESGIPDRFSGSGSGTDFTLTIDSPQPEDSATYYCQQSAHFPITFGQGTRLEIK	117

Values were extracted from patent US20260242735A1.
